# target or test system: FAK2 Catalytic Domain (Homo sapiens)
# Construct: For all of them, we expressed and purified the catalytic domain separately; His-tag; made in house; host or cells: Escherichia coli
# Sequence (Q14289 425-683 limits assumed): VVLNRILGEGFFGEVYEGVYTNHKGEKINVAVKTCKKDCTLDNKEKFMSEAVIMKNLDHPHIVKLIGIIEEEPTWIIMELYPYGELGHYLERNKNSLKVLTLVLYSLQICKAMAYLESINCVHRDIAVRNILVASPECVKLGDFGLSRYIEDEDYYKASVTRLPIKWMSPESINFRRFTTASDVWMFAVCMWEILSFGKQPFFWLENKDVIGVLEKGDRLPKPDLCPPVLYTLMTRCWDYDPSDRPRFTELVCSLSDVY
# assay summary: Differential Scanning Fluorimetry (DSF) Tm shift
# Assay type: binding
# condition set: 2 µM protein, 10 µM inhibitor, average of 3 experiments, each in duplicate
Threshold check on Melting temperature (Tm) shift: at or above 0.8 degrees Celcius gives Criterion met, strictly below gives Criterion not met.

Here's what some known entries look like.
| compound | target or test system | discrete label |
| --- | --- | --- |
| NC(=O)Nc1sc(-c2ccccc2)cc1C(N)=O [IKK-2 Inhibitor VI] | FAK2 Catalytic Domain (Homo sapiens) | Criterion met |
| N#CC(c1ccnc(NCCc2cccnc2)n1)c1nc2ccccc2s1 (stereo not drawn) [JNK Inhibitor V] | FAK2 Catalytic Domain (Homo sapiens) | Criterion not met |
| Cc1nc(N)sc1-c1ccnc(Nc2cccc([N+](=O)[O-])c2)n1 [Cdk2/9 Inhibitor] | FAK2 Catalytic Domain (Homo sapiens) | Criterion not met |
| O=C(Nc1cccc(Nc2nccc(Nc3cccc(C(F)(F)F)c3)n2)c1)C1CC1 [Aurora Kinase Inhibitor III] | FAK2 Catalytic Domain (Homo sapiens) | Criterion not met |
| O=C1Cc2c([nH]c3ccc([N+](=O)[O-])cc23)-c2ccccc2N1 [Alsterpaullone] | FAK2 Catalytic Domain (Homo sapiens) | Criterion not met |
| N#Cc1c(-c2ccccc2)cc(-c2cc(Br)ccc2O)[nH]c1=O [PIM1 Kinase Inhibitor II] | FAK2 Catalytic Domain (Homo sapiens) | Criterion not met |

Prompt: Check the entry O=C1Nc2ccccc2C1=C1Nc2ccccc2C1=NOCCC(O)CO (stereo not drawn) [Indirubin Derivative E804] : does Melting temperature (Tm) shift equal or exceed 0.8 degrees Celcius?
Completion: Criterion met

Prompt: Query CC(C)[C@H](CO)Nc1nc(Nc2cccc(Cl)c2)c2ncn(C(C)C)c2n1 [Purvalanol A] next
Completion: Criterion met

----------
# target or test system: STK3 Catalytic domain+SARAH (Homo sapiens, UniProt Q13188)
# Construct: for 8, we also made a longer version containing one or more additional domains; His-tag; made in house; host or cells: Escherichia coli
# assay summary: Differential Scanning Fluorimetry (DSF) Tm shift
# Format: binding
# condition set: 2 µM protein, 10 µM inhibitor, average of 3 experiments, each in duplicate
measurement type: Melting temperature (Tm) shift (degrees Celcius)
Give the value in degrees Celcius but do not write degrees Celcius after it.

Here is how some molecules turned out for Melting temperature (Tm) shift.
| molecule | Melting temperature (Tm) shift / degrees Celcius |
| --- | --- |
| CC[C@@H](CO)Nc1nc(NCc2ccccc2)c2ncn(C(C)C)c2n1 (single isomer, unassigned) [Roscovitine, (S)-Isomer] | 0.0 |
| N#CC(c1ccnc(NCCc2cccnc2)n1)c1nc2ccccc2s1 (stereo not shown) | 0.3 |
| Cn1cc(/C=C2\C(=O)Nc3ccc(S(N)(=O)=O)cc32)c2ccccc21 | 2.0 |

Prompt: Lab request: please report Melting temperature (Tm) shift under test system STK3 Catalytic domain+SARAH (Homo sapiens, UniProt Q13188) for O=C1NC(=O)C(=Cc2ccc(-c3ccc(F)cc3O)o2)S1
Completion: 0.5

Prompt: Ok, now Cc1[nH]c(/C=C2\C(=O)Nc3ccc(S(=O)(=O)N(C)c4cccc(Cl)c4)cc32)c(C)c1C(=O)N1CCN(C)CC1
Completion: 0.9

Prompt: Moving on to the next molecule: O=C1Cc2c([nH]c3ccc([N+](=O)[O-])cc23)-c2ccccc2N1
Completion: 0.7

Prompt: Thanks! And Nc1cccc(-c2cc3c(Oc4cccc(O)c4)ncnc3[nH]2)c1 ?
Completion: 0.5

----------
# target or test system: PAK7 Catalytic Domain (Homo sapiens, UniProt Q9P286)
# Construct: For all of them, we expressed and purified the catalytic domain separately; His-tag; made in house; host or cells: Escherichia coli
# Sequence (Q9P286 449-700 limits assumed): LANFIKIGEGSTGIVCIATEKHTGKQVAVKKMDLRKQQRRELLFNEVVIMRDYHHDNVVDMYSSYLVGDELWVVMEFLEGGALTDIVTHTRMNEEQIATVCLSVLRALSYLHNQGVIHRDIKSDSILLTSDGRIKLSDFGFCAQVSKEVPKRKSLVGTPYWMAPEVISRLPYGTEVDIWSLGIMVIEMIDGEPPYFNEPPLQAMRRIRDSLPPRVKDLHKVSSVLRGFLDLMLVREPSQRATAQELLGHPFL
# assay summary: Differential Scanning Fluorimetry (DSF) Tm shift
# Assay type: binding
# condition set: 2 µM protein, 10 µM inhibitor, average of 3 experiments, each in duplicate
Decision: Melting temperature (Tm) shift compared against 0.3 degrees Celcius; not below it gives class 1, below it gives class 0.

| compound | discrete label |
| --- | --- |
| CCCC(=O)Oc1ccc2[nH]c(C(=O)c3cc4ccccc4[nH]3)cc2c1 | class 0 |

Prompt: Decide: is the reported value of Melting temperature (Tm) shift for Cl.NCCCn1cc(C2=C(c3c[nH]c4ccccc34)C(=O)NC2=O)c2ccccc21 [Bisindolylmaleimide III, Hydrochloride] equal to or greater than 0.3 degrees Celcius?
Completion: class 1

Prompt: Subsequent entry: NC(=O)Nc1sc(-c2ccccc2)cc1C(N)=O [IKK-2 Inhibitor VI]
Completion: class 1

Prompt: Also check Cc1[nH]c(/C=C2\C(=O)Nc3ccc(S(=O)(=O)N(C)c4cccc(Cl)c4)cc32)c(C)c1C(=O)N1CCN(C)CC1 [Met Kinase Inhibitor]
Completion: class 0

----------
Quick reference: Melting temperature (Tm) shift of the listed items.
# target or test system: AKT3 Catalytic Domain (Homo sapiens, UniProt Q9Y243)
# Construct: AKT3 (Q9Y243); CD; His-tag; made in house; host or cells: Escherichia coli
# Sequence (Q9Y243 122-479): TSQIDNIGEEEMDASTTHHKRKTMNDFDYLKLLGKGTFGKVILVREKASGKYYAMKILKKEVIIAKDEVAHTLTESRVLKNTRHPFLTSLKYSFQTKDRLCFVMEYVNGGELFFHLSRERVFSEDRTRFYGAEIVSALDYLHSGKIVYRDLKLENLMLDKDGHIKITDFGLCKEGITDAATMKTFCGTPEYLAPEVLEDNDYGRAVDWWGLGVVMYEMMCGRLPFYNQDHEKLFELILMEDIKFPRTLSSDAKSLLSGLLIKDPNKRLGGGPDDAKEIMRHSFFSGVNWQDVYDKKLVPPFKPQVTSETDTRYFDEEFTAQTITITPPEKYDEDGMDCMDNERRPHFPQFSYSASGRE
# assay summary: Differential Scanning Fluorimetry (DSF) Tm shift
# Assay type: binding
# condition set: 2 µM protein, 10 µM inhibitor, average of 3 experiments, each in duplicate
Respond numerically; units are degrees Celcius and should not be typed.

Please review the following examples before continuing.
| compound | unit name | Melting temperature (Tm) shift |
| --- | --- | --- |
| O=C1C(Cl)=C(N2C(=O)CCC2=O)C(=O)c2ccccc21 [MEK Inhibitor II] | degrees Celcius | 0.3 |
| CC[C@@H](CO)Nc1nc(NCc2ccccc2)c2ncn(C(C)C)c2n1 (single isomer, unassigned) [Roscovitine, (S)-Isomer] | degrees Celcius | 0.0 |
| CC#CC(=O)Nc1cc2c(Nc3ccc(F)c(Cl)c3)ncnc2cn1 [EGFR/ErbB-2/ErbB-4 Inhibitor] | degrees Celcius | 0.0 |
| CCCCc1c(-c2ccc(O)cc2)[nH]c2nccnc12 [Aloisine A, RP107, Aloisine A] | degrees Celcius | 0.1 |

Prompt: Request the reported Melting temperature (Tm) shift associated with COc1cc2ncnc(Nc3ccc(NC(=O)c4ccccc4)cc3)c2cc1OC [Aurora Kinase Inhibitor II]
Completion: 0.1

Prompt: # iterate: NC(=O)Nc1cc(-c2ccccc2)sc1C(N)=O [IKK-2 Inhibitor XI]
Completion: 0.0

----------
# target or test system: FES Catalytic Domain (Homo sapiens, UniProt P07332)
# Construct: For all of them, we expressed and purified the catalytic domain separately; His-tag; made in house; host or cells: Escherichia coli
# Sequence (P07332 561-822 limits assumed): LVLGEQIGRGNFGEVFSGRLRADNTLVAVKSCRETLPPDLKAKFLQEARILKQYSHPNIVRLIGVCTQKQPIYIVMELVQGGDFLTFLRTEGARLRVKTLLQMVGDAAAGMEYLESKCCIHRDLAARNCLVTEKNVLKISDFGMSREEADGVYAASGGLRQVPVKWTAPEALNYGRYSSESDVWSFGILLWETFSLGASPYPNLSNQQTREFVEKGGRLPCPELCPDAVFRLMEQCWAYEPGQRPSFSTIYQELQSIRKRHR
# assay summary: Differential Scanning Fluorimetry (DSF) Tm shift
# Format: binding
# condition set: 2 µM protein, 10 µM inhibitor, average of 3 experiments, each in duplicate
Tick yes if Melting temperature (Tm) shift is 3 degrees Celcius or greater. Tick no if Melting temperature (Tm) shift is less than 3 degrees Celcius.

// below: answered compounds
| compound | target or test system | discrete label |
| --- | --- | --- |
| CN(C)CCCn1cc(C2=C(c3c[nH]c4ccccc34)C(=O)NC2=O)c2ccccc21 [Bisindolylmaleimide I] | FES Catalytic Domain (Homo sapiens, UniProt P07332) | no |
| c1cc(-c2cnn3cc(-c4ccc(OCCN5CCCCC5)cc4)cnc23)ccn1 | FES Catalytic Domain (Homo sapiens, UniProt P07332) | no |
| O=C1NC(=O)c2c1c1c3ccccc3[nH]c1n1cncc21 [Isogranulatimide] | FES Catalytic Domain (Homo sapiens, UniProt P07332) | no |
| O=C1Nc2ccc3ncsc3c2/C1=C/c1cnc[nH]1 | FES Catalytic Domain (Homo sapiens, UniProt P07332) | yes |
| O=C(c1ccc(Nc2nccc(-c3cc4ccccc4s3)n2)cc1)N1CCC(N2CCCC2)CC1 | FES Catalytic Domain (Homo sapiens, UniProt P07332) | yes |

Prompt: Reported Melting temperature (Tm) shift at or above 3 degrees Celcius? O=C1Cc2c([nH]c3ccc([N+](=O)[O-])cc23)-c2ccccc2N1
Completion: no

Prompt: Same question for Cl.NCCCn1cc(C2=C(c3c[nH]c4ccccc34)C(=O)NC2=O)c2ccccc21 [Bisindolylmaleimide III, Hydrochloride] please.
Completion: no

Prompt: What do you have for N#CCCc1ccc2c(c1)-c1[nH]c3ccc([N+](=O)[O-])cc3c1CC(=O)N2 ?
Completion: no

Prompt: Next compound up: CCCCn1c2ccc(O)cc2c2c3c(c(-c4ccccc4Cl)cc21)C(=O)NC3=O
Completion: no

Prompt: Also CCN1/C(=C/C(C)=O)Sc2ccc(OC)cc21 ?
Completion: no

----------
// values below are reported Melting temperature (Tm) shift
# target or test system: STK3 Catalytic domain+SARAH (Homo sapiens)
# Construct: for 8, we also made a longer version containing one or more additional domains; His-tag; made in house; host or cells: Escherichia coli
# Sequence (Q13188 1-491): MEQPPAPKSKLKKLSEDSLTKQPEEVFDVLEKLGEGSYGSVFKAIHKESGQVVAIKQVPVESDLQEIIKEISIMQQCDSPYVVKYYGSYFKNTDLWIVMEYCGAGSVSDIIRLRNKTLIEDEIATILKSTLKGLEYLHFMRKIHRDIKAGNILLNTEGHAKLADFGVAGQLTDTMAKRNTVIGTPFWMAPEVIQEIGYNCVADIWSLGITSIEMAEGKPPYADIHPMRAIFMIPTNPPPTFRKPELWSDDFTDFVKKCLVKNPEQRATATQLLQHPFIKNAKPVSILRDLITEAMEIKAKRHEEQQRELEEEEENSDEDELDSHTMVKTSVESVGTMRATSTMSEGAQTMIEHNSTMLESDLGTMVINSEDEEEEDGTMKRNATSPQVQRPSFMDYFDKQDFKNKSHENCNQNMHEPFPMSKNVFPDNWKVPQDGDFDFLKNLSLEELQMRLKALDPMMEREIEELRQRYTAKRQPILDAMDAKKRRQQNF
# assay summary: Differential Scanning Fluorimetry (DSF) Tm shift
# Type: binding
# condition set: 2 µM protein, 10 µM inhibitor, average of 3 experiments, each in duplicate
State the answer as a number, implicitly in degrees Celcius.

Solved entries (count: 2):
| compound | recorded measurement |
| --- | --- |
| Cl.Cl.O=S(=O)(NCCNC/C=C/c1ccc(Br)cc1)c1cccc2cnccc12 [H-89, Dihydrochloride] | 0.4 |
| CCCCc1c(-c2ccc(O)cc2)[nH]c2nccnc12 | 1.4 |

Prompt: Request the reported Melting temperature (Tm) shift associated with CC(C)c1nn(-c2c(Cl)cccc2Cl)c2nc(Cc3ccc(OCCO)cc3)[nH]c(=O)c12
Completion: 0.2

Prompt: Note, next up: COc1ccc2c(c1)c(C1=C(c3c[nH]c4ccccc34)C(=O)NC1=O)cn2CCCN(C)C
Completion: 0.7
